# targetEntity: Human CD137 ECD (human)
# Sequence (chain, as listed by the source limits assumed): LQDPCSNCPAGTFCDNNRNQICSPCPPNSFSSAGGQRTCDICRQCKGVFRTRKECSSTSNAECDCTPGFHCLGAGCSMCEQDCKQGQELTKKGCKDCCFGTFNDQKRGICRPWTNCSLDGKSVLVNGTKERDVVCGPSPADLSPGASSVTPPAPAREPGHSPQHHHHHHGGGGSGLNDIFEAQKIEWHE
# testProtocol: SPR, vs parent H183/L072
Record form. Attribute: fold change of affinity. Fill in for each entry.
Give the value in fold but do not write fold after it.

# lookup: fold change of affinity of dBBDu183H A100fE / dBBDu072L (antibody, name in Kabat numbering, V domains shown) VH: QVQLVESGGGLVQPGRSLRLSCAASGFTFSNAWMHWVRQAPGKGLEWVAQIKDKGNAYAAYYAPSVKGRFTISRDDSKNSIYLQMNSLKTEDTAVYYCHYVHYASASTVLPEFGVDAWGQGTTVTVSS VL: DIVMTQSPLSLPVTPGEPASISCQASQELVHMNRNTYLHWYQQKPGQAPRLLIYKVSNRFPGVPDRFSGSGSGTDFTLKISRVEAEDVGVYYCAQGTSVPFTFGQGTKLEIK 0

Next: dBBDu183H A102E / dBBDu072L (antibody, name in Kabat numbering, V domains shown) VH: QVQLVESGGGLVQPGRSLRLSCAASGFTFSNAWMHWVRQAPGKGLEWVAQIKDKGNAYAAYYAPSVKGRFTISRDDSKNSIYLQMNSLKTEDTAVYYCHYVHYASASTVLPAFGVDEWGQGTTVTVSS VL: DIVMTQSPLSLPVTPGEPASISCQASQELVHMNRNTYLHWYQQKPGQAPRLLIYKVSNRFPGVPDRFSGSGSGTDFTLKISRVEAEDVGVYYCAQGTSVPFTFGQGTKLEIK 0

// query: dBBDu183H F100gK / dBBDu072L (antibody, name in Kabat numbering, V domains shown) VH: QVQLVESGGGLVQPGRSLRLSCAASGFTFSNAWMHWVRQAPGKGLEWVAQIKDKGNAYAAYYAPSVKGRFTISRDDSKNSIYLQMNSLKTEDTAVYYCHYVHYASASTVLPAKGVDAWGQGTTVTVSS VL: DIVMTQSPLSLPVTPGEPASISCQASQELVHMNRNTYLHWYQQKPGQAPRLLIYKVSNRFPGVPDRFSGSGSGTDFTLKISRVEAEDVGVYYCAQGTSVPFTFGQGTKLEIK 0

What about dBBDu183H T100bR / dBBDu072L (antibody, name in Kabat numbering, V domains shown) VH: QVQLVESGGGLVQPGRSLRLSCAASGFTFSNAWMHWVRQAPGKGLEWVAQIKDKGNAYAAYYAPSVKGRFTISRDDSKNSIYLQMNSLKTEDTAVYYCHYVHYASASRVLPAFGVDAWGQGTTVTVSS VL: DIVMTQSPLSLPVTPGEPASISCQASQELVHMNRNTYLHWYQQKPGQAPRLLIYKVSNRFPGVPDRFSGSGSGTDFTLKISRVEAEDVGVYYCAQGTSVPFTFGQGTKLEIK ? 0

Same question, dBBDu183H S100aW / dBBDu072L (antibody, name in Kabat numbering, V domains shown) VH: QVQLVESGGGLVQPGRSLRLSCAASGFTFSNAWMHWVRQAPGKGLEWVAQIKDKGNAYAAYYAPSVKGRFTISRDDSKNSIYLQMNSLKTEDTAVYYCHYVHYASAWTVLPAFGVDAWGQGTTVTVSS VL: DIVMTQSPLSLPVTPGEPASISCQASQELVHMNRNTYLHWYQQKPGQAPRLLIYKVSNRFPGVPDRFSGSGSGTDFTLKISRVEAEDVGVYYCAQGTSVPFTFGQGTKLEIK this time 0
